These measurements were taken from patent US20250034594A1.

# Test system: gene editing with dCas9
# Procedure Summary: Screen of 322 new SSAP proteins, gene editing activity with dCas9 (Table 5)
# Type: cell-based
# Condition Parameters: normalized
Measure Name: dCas9 with SSAP activity (normalized)

1. SSAP_198: SEQ ID NO: 367; Streptomyces sp. ms191 (protein, listed as Streptomyces sp.) VEHYKADLAQVMPSHVKPDTFIRLAVGVLRRDRNLAQAAQNNPAALMGALMDAAQLGLTPGTEQFYLVPRKKAGRLEVQGIRGYQGEIELIYRAGAVSSVIVEVVRQADTFRYSPGRDERPEHEIDWDAEDRGPLRLVYAYAVMKDGATSKVVVLNRAQVMKAKAMSQGSDSAYSPWQKHEEAMWMKTAAHRLTKWVPTSAEYMREQLRAAAEVAAEHRPTPVAAAPGMPSVPGEDEAIEAEFVDEDEVA; −0.849
2. SSAP_276: SEQ ID NO: 445; Oceanobacillus sp. Castelsardo (protein, listed as Oceanobacillus sp.) ATNSTLKNQISNKKQGNNQVGKTQGTTMKQLLASPAVMNRFEEVLGKRANQFTASILGLYNSEKMLQKAEPMSVISSAMIAATLDLPVDKNLGYAWIVPYGGKAQFQMGYKGYIQLALRTGQYRNINVIEVYEGELKKWDRLTEEIELDFESRTSDKVIGYTGYFELINGFRKTVYWSKEDVEKHKKRFSKSDFGWKNDWDAMARKTVIRNMLNKWGILSIDMQKGMVEDSKDPVEVNEEFSSDVIDADYEVVGENEQQDFTVEENA; −0.337
